# test_target: human GR (Homo sapiens)
# Sequence (P04150 1-777): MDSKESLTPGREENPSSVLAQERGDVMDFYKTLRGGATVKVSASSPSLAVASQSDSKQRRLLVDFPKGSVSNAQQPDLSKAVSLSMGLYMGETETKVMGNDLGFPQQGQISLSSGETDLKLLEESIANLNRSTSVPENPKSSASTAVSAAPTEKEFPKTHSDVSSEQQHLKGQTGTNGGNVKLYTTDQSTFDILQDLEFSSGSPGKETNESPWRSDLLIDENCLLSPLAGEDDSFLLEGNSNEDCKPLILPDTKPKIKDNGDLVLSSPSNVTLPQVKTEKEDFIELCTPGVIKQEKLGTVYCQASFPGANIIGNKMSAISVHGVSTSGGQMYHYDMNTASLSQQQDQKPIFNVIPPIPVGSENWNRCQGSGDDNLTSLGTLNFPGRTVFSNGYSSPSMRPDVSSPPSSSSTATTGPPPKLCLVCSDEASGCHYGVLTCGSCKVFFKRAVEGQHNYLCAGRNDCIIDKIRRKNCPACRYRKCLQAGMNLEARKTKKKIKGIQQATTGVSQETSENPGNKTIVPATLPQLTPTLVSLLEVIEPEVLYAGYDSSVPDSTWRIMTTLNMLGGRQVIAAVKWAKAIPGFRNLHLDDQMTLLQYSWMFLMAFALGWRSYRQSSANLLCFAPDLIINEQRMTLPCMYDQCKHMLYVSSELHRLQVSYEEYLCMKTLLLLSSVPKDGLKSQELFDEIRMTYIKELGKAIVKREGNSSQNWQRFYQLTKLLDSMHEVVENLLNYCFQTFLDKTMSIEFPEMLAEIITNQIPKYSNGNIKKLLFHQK
# experimental_details: Trans-Activation Modulation of Glucocorticoid Receptor (GRAMMER), MMTV-LUC reporter gene
# Format: cell-based
# Design: endogenous in cells
# conditions: Table 1; A549 cells; IP = inflection point; read-out: Transactivation A549 Cells GRAMMER IP
Note to self: EC50 under 0.2 µM means criterion met, ties and anything higher get criterion not met.

smiles_input=C[C@]12Cc3cnn(-c4ccc(F)cc4)c3C=C1CC[C@@]2(O)CCc1ccc(Cl)cc1C(N)=O test_target="human GR (Homo sapiens)" label_class="criterion not met"
smiles_input=C[C@]12Cc3cnn(-c4ccc(F)cc4)c3C=C1CC[C@@]2(O)CCc1ccccc1S(C)(=O)=O test_target="human GR (Homo sapiens)" label_class="criterion met"
smiles_input=C[C@]12Cc3cnn(-c4ccc(F)c(F)c4)c3C=C1CC[C@@]2(O)CCc1ccccc1C(N)=O test_target="human GR (Homo sapiens)" label_class="criterion met"
smiles_input=CCNC(=O)c1ccccc1CC[C@]1(O)CCC2=Cc3c(cnn3-c3ccc(F)c(F)c3)C[C@@]21C test_target="human GR (Homo sapiens)" label_class="criterion met"
smiles_input=CC(C)S(=O)(=O)NCc1c(F)cccc1CC[C@]1(O)CCC2=Cc3c(cnn3-c3ccc(F)cc3)C[C@@]21C test_target="human GR (Homo sapiens)" label_class="criterion met"
smiles_input=C[C@]12Cc3cnn(-c4ccccc4)c3C=C1CC[C@@]2(O)CCc1ccccc1C(=O)NC1CC1 test_target="human GR (Homo sapiens)" label_class="criterion met"
